Assay: Cytotoxicity in human MT4 cells assessed as reduction of cell viability incubated for 3 days by CytoTox-Glo cytotoxicity assay
Assay type: cell-based
# CC50 at 72 h per entry

Worked cases, answers included:
{"Compound": "O=C(NCCCCN1CCCC2=C[C@H]3C[C@H](CN4CCCC[C@H]34)[C@@H]21)c1ccc(CNS(=O)(=O)C(F)(F)F)cc1", "CC50 at 72 h": "> 40 µM"}
{"Compound": "O=C(CC1CCC(F)(F)CC1)NCCCCN1CCCC2=C[C@H]3C[C@H](CN4CCCC[C@H]34)[C@@H]21", "CC50 at 72 h": "> 40 µM"}
{"Compound": "O=C(Cc1ccc(S(=O)(=O)C(F)(F)F)cc1)NCCCCN1CCCC2=C[C@H]3C[C@H](CN4CCCC[C@H]34)[C@@H]21", "CC50 at 72 h": "28.8 µM"}

Could you now look at the following compound, please?
Query: Request the reported CC50 at 72 h associated with O=C(NCCCCN1CCCC2=C[C@H]3C[C@H](CN4CCCC[C@H]34)[C@@H]21)C1CCC(C(F)(F)F)CC1 (some centres undefined)
Reply: > 40 µM

meta.source: ChEMBL document CHEMBL4130569
